# assay-procedure: protein stability index of a GFP-peptide fusion (yeast GPS) (PSI 1-4); higher = more stable; sorted into four equal gates, so the index is relative within each strain
# test-settings: pdr5∆
A collection of sequences and their measured protein stability index
property: protein stability index

> print(dat)
               residue.codes                 property  result
1  SVMMQDSPASNEDDLTV [RPO31]  protein stability index    3.08
2   KKEEELGVKSRLLEKSE [SNF2]  protein stability index    3.01
3   KPWFATVNGQARDLATM [FAS1]  protein stability index    3.08
4  LFDAAFYMKKDAVEGVS [RPO31]  protein stability index    2.96

====

A collection of sequences and their measured protein stability index
# assay-procedure: protein stability index of a GFP-peptide fusion (yeast GPS) (PSI 1-4); higher = more stable; sorted into four equal gates, so the index is relative within each strain
# test-settings: ubr1∆
property: protein stability index

> print(dat)
                        residue.codes                 property  result
1            SVAPTKQREIVKAFLSI [NUT1]  protein stability index    2.04
2  NTKVPVDIVNQWFLQYQ [YML103C/NUP188]  protein stability index    2.18
3           ALIRRDFTLIPRMASVF [CDC53]  protein stability index    2.17
4           ENGLQLSDNAKTLHSQM [RPC34]  protein stability index    3.13
5            EGMFANANRVFRTRFQD [SMC2]  protein stability index    2.31

====

# assay-procedure: protein stability index of a GFP-peptide fusion (yeast GPS) (PSI 1-4); higher = more stable; sorted into four equal gates, so the index is relative within each strain
# test-settings: san1∆
property: protein stability index

> print(dat)
               residue.codes                 property  result
1   SRDLWCFSINDDPVPTP [SSN2]  protein stability index    2.94
2   MAATATDKIGRSVPAPG [FAS2]  protein stability index    3.04
3   KPWFATVNGQARDLATM [FAS1]  protein stability index       3
4  ADTGRDDTKETVYISSI [RPN11]  protein stability index    3.01
5  TEAAFTKLDQVWGSETV [RPL4A]  protein stability index    3.07
6   LLVERLKEDDSSLYEAS [RPN1]  protein stability index    3.06
7   NGGEDTSVENEGPVANL [REC8]  protein stability index    3.06
8   RALSIFSPDGHIFQVEY [PRE6]  protein stability index    3.04
9   FQTPFRRRREGKTDYYQ [RPL5]  protein stability index    2.97

====

# assay-procedure: protein stability index of a GFP-peptide fusion (yeast GPS) (PSI 1-4); higher = more stable; sorted into four equal gates, so the index is relative within each strain
# test-settings: ubr1∆
Please enter Y where protein stability index is greater than or equal to 3, and N where it is lower.

> print(dat)
                         residue.codes  assigned.class
 1          ARIALRHLEKEGIIKPI [RPS25A]               Y
 2            KREASRGFFDILSLATE [MCD1]               Y
 3   GGTSLFGNTSTSSAPAQ [YGL172W/NUP49]               N
 4  KNFIESESVGAFLSFLA [YJL039C/NUP192]               N
 5           LRDTFIELDQVLNMLYW [RPO21]               N
 6            LVTAGVAAAGITASTLL [CYT1]               N
 7          SGQTPVQSKARYTVRTF [RPL11A]               N
 8            SSEQDYSTLKELLEYSD [YCG1]               Y
 9            NCVNDVLEFCKDYEAKT [POP1]               Y
10            VLRLATNKGPLAQIWLA [MCD1]               N
11            SKEDYETLKRDRKQSQA [ARP7]               N
12    AEKLVPLPICHANSVVA [YML031W/NDC1]               N
13            YASYFPYLLETYANVLI [RPN7]               N
14            QQGQNMSEQQWREQLRN [ROX3]               N
15           GDIESLFEQLQTVSNKE [SRP54]               Y
16          TESVPEPKLFRMRIFAS [RPL20A]               N

====

A collection of sequences and their measured protein stability index
# assay-procedure: protein stability index of a GFP-peptide fusion (yeast GPS) (PSI 1-4); higher = more stable; sorted into four equal gates, so the index is relative within each strain
# test-settings: doa10∆
property: protein stability index

> print(dat)
                         residue.codes  result
 1           RNMIIVPEMIGSVVGIY [RPS15]    1.31
 2            LGTIESAQAETEALLLE [DIS3]    2.92
 3            SDRSLSEDLFADGLLQV [BRR2]    3.04
 4            SLQDNSAAINNEDARAI [RPN4]    3.12
 5  LTLIFYDVLHDVFTINP [YML103C/NUP188]     1.7
 6            GNASLKYIALQVIVDIF [YCG1]     1.2
 7            ISLLKNRRKQSFVLNKN [RPN4]    3.52
 8            VTQNVLGLEYIIRLLPI [SRB8]    1.55
 9           GFIDASCIAVMAGLMHF [RRP45]    1.48
10          VRCVNCSKSIPKDKAIK [RPS26A]    2.77
11    DIWSISKKRQAEKLVPL [YML031W/NDC1]    2.64
12           YVEAQHKLVFVVRIKGI [RPL7A]    1.09
13           YHRLSNKDMIKNLVKVL [CSN12]    3.21
14            ETISAIEHPMTSAIEVL [RPN1]    1.49
15            NTRKNMSISLESSKALA [DIS3]    1.96
16            LDNLTEDPNSAAFDEVE [DIS3]    3.19
17          APSANQGDEALSVDDIR [RTT102]    3.15
18  GWSLVGRILQNLLHSYM [YML103C/NUP188]    1.85
19  LKLCLGDHSSVPVALKG [YMR129W/POM152]    2.79
20           QYESQAPDGSASISLPN [SWP82]    2.97
21          VGDIVDIKANGSIQKGM [RPL21A]    2.35
22            EALLRSLLDAEEERRKK [SNF2]    2.87

====

# assay-procedure: protein stability index of a GFP-peptide fusion (yeast GPS) (PSI 1-4); higher = more stable; sorted into four equal gates, so the index is relative within each strain
# test-settings: doa10∆
// thresholds for protein stability index classes: lowest: < 2; middle: ≥ 2 and < 3; highest: ≥ 3

> print(dat)
                 residue.codes  assigned.class
 1   QAEATEWAEENADNVEW [RPS0A]          middle
 2    VSFDFNGVPGQALDAVR [MED8]         highest
 3   NNIEENLRLLNSIDSTS [ECM29]         highest
 4    VPTLEAKRDYIISRLNA [FAS1]         highest
 5    GYFIINGSEKVLIAQER [RPB2]         highest
 6  CKEVGITAVHVKIRATG [RPS14A]          lowest
 7   IHKRYIDLEAPVQIVKR [RPS20]          middle
 8    CLEDPEKPFNENRFQDT [POP4]          middle
 9   NSGKQQYYRGLPLYEKN [SWP82]          middle
10    GLDQSRIPFSERKLKFS [FAS1]          lowest
11    PNALKPLSESLRLVDDD [RRP6]         highest
12    KGDRALLVKLSKRLPLR [BRR2]          middle
13    IDEDIGNNVQENELVIT [RMP1]         highest
